# System: 648629-189-R-J1-PDC complex spheroids viability
# protocol details: Anticancer human tumor 648629-189-R-J1-PDC patient-derived bladder carcinoma cell line growth inhibition [CLK]; active = viability on the fitted dose curve at most 10% of control; inactive = the rest
# condition info: second compound 10 µM; first compound 0.00316 µM
Answer with one of the outcomes given here: YES = active, NO = inactive

For orientation, consider the following solved cases.
CCN1CCN(Cc2ccc(Nc3ncc(F)c(-c4cc(F)c5nc(C)n(C(C)C)c5c4)n3)nc2)CC1 + CN1CCN(c2cc(C(=O)Nc3cc4cc(-c5cnn(C)c5)ccc4cn3)ccn2)CC1
YES
CCN1CCN(Cc2ccc(Nc3ncc(F)c(-c4cc(F)c5nc(C)n(C(C)C)c5c4)n3)nc2)CC1 + CNC(=O)c1ccc(Nc2nc(OC3CCCC3)c3c(-c4ccc5nc(C)oc5c4)c[nH]c3n2)c(OC)c1
NO
CCc1c2c(nc3ccc(O)cc13)-c1cc3c(c(=O)n1C2)COC(=O)[C@]3(O)CC + CN1CCN(c2cc(C(=O)Nc3cc4cc(-c5cnn(C)c5)ccc4cn3)ccn2)CC1
YES
Cn1ncnc1[C@H]1c2n[nH]c(=O)c3cc(F)cc(c23)N[C@@H]1c1ccc(F)cc1 + CN1CCN(c2cc(C(=O)Nc3cc4cc(-c5cnn(C)c5)ccc4cn3)ccn2)CC1
YES
COc1c(OCCCN2CCOCC2)ccc2c3n(c(=NC(=O)c4cnc(N)nc4)nc12)CCN3 + CNC(=O)c1ccc(Nc2nc(OC3CCCC3)c3c(-c4ccc5nc(C)oc5c4)c[nH]c3n2)c(OC)c1
NO
COc1c(OCCCN2CCOCC2)ccc2c3n(c(=NC(=O)c4cnc(N)nc4)nc12)CCN3 + CN1CCN(c2cc(C(=O)Nc3cc4cc(-c5cnn(C)c5)ccc4cn3)ccn2)CC1
YES
CCc1c2c(nc3ccc(O)cc13)-c1cc3c(c(=O)n1C2)COC(=O)[C@]3(O)CC + CNC(=O)c1ccc(Nc2nc(OC3CCCC3)c3c(-c4ccc5nc(C)oc5c4)c[nH]c3n2)c(OC)c1
NO

Alright, here's another compound for you.
Req: What call does the record list for Cn1ncnc1[C@H]1c2n[nH]c(=O)c3cc(F)cc(c23)N[C@@H]1c1ccc(F)cc1 + CNC(=O)c1ccc(Nc2nc(OC3CCCC3)c3c(-c4ccc5nc(C)oc5c4)c[nH]c3n2)c(OC)c1 ?
Resp: NO

====

# Test system: 648629-189-R-J1-PDC complex spheroids viability
# protocol details: Anticancer human tumor 648629-189-R-J1-PDC cell line growth inhibition [CLK];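 also: drug exposure lasted seven days before viability readout; 100% = DMSO vehicle control wells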
# condition info: second compound 1 µM; first compound 0.0949 µM; active compounds read low
Each entry below carries its reported viability, T/C.
// return numeric value only (unit: %, not printed)

CC(C)CC(NC(=O)C(Cc1ccccc1)NC(=O)c1cnccn1)B(O)O (stereo not drawn) + CN1CCN(c2cc(C(=O)Nc3cc4cc(-c5cnn(C)c5)ccc4cn3)ccn2)CC1
0.17
NC(=O)C(=Cn1cnc(-c2cc(C(F)(F)F)cc(C(F)(F)F)c2)n1)c1cncnc1 + CNC(=O)c1ccc(Nc2nc(OC3CCCC3)c3c(-c4ccc5nc(C)oc5c4)c[nH]c3n2)c(OC)c1
4.85

For reference, reported viability, T/C for C=CC(=O)Nc1cc(Nc2nccc(-c3cn(C)c4ccccc34)n2)c(OC)cc1N(C)CCN(C)C + CNC(=O)c1ccc(Nc2nc(OC3CCCC3)c3c(-c4ccc5nc(C)oc5c4)c[nH]c3n2)c(OC)c1 stands at 16.5

====

# Test system: 648629-189-R-J1-PDC complex spheroids viability
# protocol details: Anticancer human tumor 648629-189-R-J1-PDC cell line growth inhibition [CLK];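 also: drug exposure lasted seven days before viability readout; 100% = DMSO vehicle control wells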
# condition info: second compound 3.16 µM; first compound 10 µM; active compounds read low
Binary call on viability, T/C with cut-off 2%: strictly below means y, and equality or higher means n.

Nc1ccn(C2OC(CO)C(O)C2(F)F)c(=O)n1 (stereo unspecified) + CN1CCN(c2cc(C(=O)Nc3cc4cc(-c5cnn(C)c5)ccc4cn3)ccn2)CC1
y
COC1C=CCC(C)C(C)S(=O)(=O)NC(=O)c2ccc3c(c2)N(CC2CCC21)CC1(CCCc2cc(Cl)ccc21)CO3 (stereo unspecified) + CNC(=O)c1ccc(Nc2nc(OC3CCCC3)c3c(-c4ccc5nc(C)oc5c4)c[nH]c3n2)c(OC)c1
n
CC(CO)NC(=O)c1cc(-c2ccc(Cl)cc2)nn(-c2cnn(C)c2)c1=O (stereo unspecified) + CNC(=O)c1ccc(Nc2nc(OC3CCCC3)c3c(-c4ccc5nc(C)oc5c4)c[nH]c3n2)c(OC)c1
n
CC1COCCN1c1cc(C2(S(C)(=N)=O)CC2)nc(-c2ccnc3[nH]ccc23)n1 (stereo unspecified) + CN1CCN(c2cc(C(=O)Nc3cc4cc(-c5cnn(C)c5)ccc4cn3)ccn2)CC1
y
CCCS(=O)(=O)Nc1ccc(F)c(C(=O)c2c[nH]c3ncc(-c4ccc(Cl)cc4)cc23)c1F + CN1CCN(c2cc(C(=O)Nc3cc4cc(-c5cnn(C)c5)ccc4cn3)ccn2)CC1
y

Req: Is viability, T/C strictly under 2% for the entry COc1ccc([C@@H](O)c2cc(-c3ncnc4cc(N5CCOCC5)ccc34)c(F)cc2Cl)nn1 + CN1CCN(c2cc(C(=O)Nc3cc4cc(-c5cnn(C)c5)ccc4cn3)ccn2)CC1 ?
Resp: y

Req: Is viability, T/C strictly under 2% for the entry C=CC(=O)N1CCN(c2nc(=O)n(-c3c(C)ccnc3C(C)C)c3nc(-c4c(O)cccc4F)c(F)cc23)C(C)C1 (stereo unspecified) + CNC(=O)c1ccc(Nc2nc(OC3CCCC3)c3c(-c4ccc5nc(C)oc5c4)c[nH]c3n2)c(OC)c1 ?
Resp: n

Req: Is viability, T/C strictly under 2% for the entry C=C(F)C(=O)N1CCN(c2nc(OCC3CCCN3C)nc3c2CCN(c2cccc4cccc(Cl)c24)C3)CC1CC#N (stereo unspecified) + CN1CCN(c2cc(C(=O)Nc3cc4cc(-c5cnn(C)c5)ccc4cn3)ccn2)CC1 ?
Resp: y

Req: Is viability, T/C strictly under 2% for the entry C=C(F)C(=O)N1CCN(c2nc(OCC3CCCN3C)nc3c2CCN(c2cccc4cccc(Cl)c24)C3)CC1CC#N (stereo unspecified) + CNC(=O)c1ccc(Nc2nc(OC3CCCC3)c3c(-c4ccc5nc(C)oc5c4)c[nH]c3n2)c(OC)c1 ?
Resp: y

Req: Is viability, T/C strictly under 2% for the entry CCCS(=O)(=O)Nc1ccc(F)c(C(=O)c2c[nH]c3ncc(-c4ccc(Cl)cc4)cc23)c1F + CNC(=O)c1ccc(Nc2nc(OC3CCCC3)c3c(-c4ccc5nc(C)oc5c4)c[nH]c3n2)c(OC)c1 ?
Resp: n

====

# System: 648629-189-R-J1-PDC complex spheroids viability
# protocol details: Anticancer human tumor 648629-189-R-J1-PDC cell line growth inhibition [CLK]; active = viability on the fitted dose curve at most 10% of control; inactive = the rest;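 also: drug exposure lasted seven days before viability readout; 100% = DMSO vehicle control wells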
# condition info: second compound 10 µM; first compound 0.0316 µM
# From the text: A high-throughput screen of multi-cell type tumor spheroids was designed to identify active combinations of […] and targeted small molecules. Complex spheroids include a stromal component modeled by human endothelial cells (HUVEC) and fibroblasts modeled by human mesenchymal stem cells (MSCs). […] Compounds. […] If the clinical Cmax for an agent had not been determined, the highest concentration tested was 10 microM. […]
Answer with one of the outcomes given here: active, inactive

For orientation, consider the following solved cases.
C=C(F)C(=O)N1CCN(c2nc(OCC3CCCN3C)nc3c2CCN(c2cccc4cccc(Cl)c24)C3)CC1CC#N (stereo not drawn) + CNC(=O)c1ccc(Nc2nc(OC3CCCC3)c3c(-c4ccc5nc(C)oc5c4)c[nH]c3n2)c(OC)c1
inactive
COc1cccc2c1C(=O)c1c(O)c3c(c(O)c1C2=O)CC(O)(C(=O)CO)CC3OC1CC(N)C(O)C(C)O1 (stereo not drawn) + CN1CCN(c2cc(C(=O)Nc3cc4cc(-c5cnn(C)c5)ccc4cn3)ccn2)CC1
active

Req: What call does the record list for Cn1ncnc1[C@H]1c2n[nH]c(=O)c3cc(F)cc(c23)N[C@@H]1c1ccc(F)cc1 + CN1CCN(c2cc(C(=O)Nc3cc4cc(-c5cnn(C)c5)ccc4cn3)ccn2)CC1 ?
Resp: active

====

# Tested on: 648629-189-R-J1-PDC complex spheroids viability
# protocol details: Anticancer human tumor 648629-189-R-J1-PDC cell line growth inhibition [CLK];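 also: drug exposure lasted seven days before viability readout; 100% = DMSO vehicle control wells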
# condition info: second compound 0.316 µM; first compound 0.0316 µM; active compounds read low
Binary call on viability, T/C with cut-off 30%: strictly below means 1 (yes), and equality or higher means 0 (no).

C=CC(=O)N1CCN(c2nc(=O)n(-c3c(C)ccnc3C(C)C)c3nc(-c4c(O)cccc4F)c(F)cc23)C(C)C1 (stereo not given) + CNC(=O)c1ccc(Nc2nc(OC3CCCC3)c3c(-c4ccc5nc(C)oc5c4)c[nH]c3n2)c(OC)c1
1 (yes)
CCN1CCN(Cc2ccc(Nc3ncc(F)c(-c4cc(F)c5nc(C)n(C(C)C)c5c4)n3)nc2)CC1 + CN1CCN(c2cc(C(=O)Nc3cc4cc(-c5cnn(C)c5)ccc4cn3)ccn2)CC1
0 (no)
C=C(F)C(=O)N1CCN(c2nc(OCC3CCCN3C)nc3c2CCN(c2cccc4cccc(Cl)c24)C3)CC1CC#N (stereo not given) + CNC(=O)c1ccc(Nc2nc(OC3CCCC3)c3c(-c4ccc5nc(C)oc5c4)c[nH]c3n2)c(OC)c1
1 (yes)

Req: Is viability, T/C strictly under 30% for the entry COC1C=CCC(C)C(C)S(=O)(=O)NC(=O)c2ccc3c(c2)N(CC2CCC21)CC1(CCCc2cc(Cl)ccc21)CO3 (stereo not given) + CN1CCN(c2cc(C(=O)Nc3cc4cc(-c5cnn(C)c5)ccc4cn3)ccn2)CC1 ?
Resp: 0 (no)

Req: Is viability, T/C strictly under 30% for the entry COc1cccc2c1C(=O)c1c(O)c3c(c(O)c1C2=O)CC(O)(C(=O)CO)CC3OC1CC(N)C(O)C(C)O1 (stereo not given) + CN1CCN(c2cc(C(=O)Nc3cc4cc(-c5cnn(C)c5)ccc4cn3)ccn2)CC1 ?
Resp: 1 (yes)

Req: Is viability, T/C strictly under 30% for the entry COC1C=CCC(C)C(C)S(=O)(=O)NC(=O)c2ccc3c(c2)N(CC2CCC21)CC1(CCCc2cc(Cl)ccc21)CO3 (stereo not given) + CNC(=O)c1ccc(Nc2nc(OC3CCCC3)c3c(-c4ccc5nc(C)oc5c4)c[nH]c3n2)c(OC)c1 ?
Resp: 1 (yes)

Req: Is viability, T/C strictly under 30% for the entry C=C(F)C(=O)N1CCN(c2nc(OCC3CCCN3C)nc3c2CCN(c2cccc4cccc(Cl)c24)C3)CC1CC#N (stereo not given) + CN1CCN(c2cc(C(=O)Nc3cc4cc(-c5cnn(C)c5)ccc4cn3)ccn2)CC1 ?
Resp: 0 (no)

Req: Is viability, T/C strictly under 30% for the entry CCc1c2c(nc3ccc(O)cc13)-c1cc3c(c(=O)n1C2)COC(=O)[C@]3(O)CC + CN1CCN(c2cc(C(=O)Nc3cc4cc(-c5cnn(C)c5)ccc4cn3)ccn2)CC1 ?
Resp: 1 (yes)

Req: Is viability, T/C strictly under 30% for the entry Nc1ccn(C2OC(CO)C(O)C2(F)F)c(=O)n1 (stereo not given) + CNC(=O)c1ccc(Nc2nc(OC3CCCC3)c3c(-c4ccc5nc(C)oc5c4)c[nH]c3n2)c(OC)c1 ?
Resp: 1 (yes)

Req: Is viability, T/C strictly under 30% for the entry CCCS(=O)(=O)Nc1ccc(F)c(C(=O)c2c[nH]c3ncc(-c4ccc(Cl)cc4)cc23)c1F + CN1CCN(c2cc(C(=O)Nc3cc4cc(-c5cnn(C)c5)ccc4cn3)ccn2)CC1 ?
Resp: 0 (no)

Req: Is viability, T/C strictly under 30% for the entry CCCS(=O)(=O)Nc1ccc(F)c(C(=O)c2c[nH]c3ncc(-c4ccc(Cl)cc4)cc23)c1F + CNC(=O)c1ccc(Nc2nc(OC3CCCC3)c3c(-c4ccc5nc(C)oc5c4)c[nH]c3n2)c(OC)c1 ?
Resp: 1 (yes)

Req: Is viability, T/C strictly under 30% for the entry Cn1ncnc1[C@H]1c2n[nH]c(=O)c3cc(F)cc(c23)N[C@@H]1c1ccc(F)cc1 + CNC(=O)c1ccc(Nc2nc(OC3CCCC3)c3c(-c4ccc5nc(C)oc5c4)c[nH]c3n2)c(OC)c1 ?
Resp: 1 (yes)

Req: Is viability, T/C strictly under 30% for the entry Cn1ncnc1[C@H]1c2n[nH]c(=O)c3cc(F)cc(c23)N[C@@H]1c1ccc(F)cc1 + CN1CCN(c2cc(C(=O)Nc3cc4cc(-c5cnn(C)c5)ccc4cn3)ccn2)CC1 ?
Resp: 0 (no)

Req: Is viability, T/C strictly under 30% for the entry CC(Nc1ccc2c(c1)OCCn1cc(N3C(=O)OCC3C(F)F)nc1-2)C(N)=O (stereo not given) + CN1CCN(c2cc(C(=O)Nc3cc4cc(-c5cnn(C)c5)ccc4cn3)ccn2)CC1 ?
Resp: 0 (no)

Req: Is viability, T/C strictly under 30% for the entry Nc1ccccc1NC(=O)c1ccc(CNC(=O)OCc2cccnc2)cc1 + CN1CCN(c2cc(C(=O)Nc3cc4cc(-c5cnn(C)c5)ccc4cn3)ccn2)CC1 ?
Resp: 0 (no)

Req: Is viability, T/C strictly under 30% for the entry C=CC(=O)N1CCN(c2nc(=O)n(-c3c(C)ccnc3C(C)C)c3nc(-c4c(O)cccc4F)c(F)cc23)C(C)C1 (stereo not given) + CN1CCN(c2cc(C(=O)Nc3cc4cc(-c5cnn(C)c5)ccc4cn3)ccn2)CC1 ?
Resp: 0 (no)

Req: Is viability, T/C strictly under 30% for the entry O=C(c1cc(Cc2n[nH]c(=O)c3ccccc23)ccc1F)N1CCN(C(=O)C2CC2)CC1 + CN1CCN(c2cc(C(=O)Nc3cc4cc(-c5cnn(C)c5)ccc4cn3)ccn2)CC1 ?
Resp: 0 (no)

Req: Is viability, T/C strictly under 30% for the entry Nc1ccn(C2OC(CO)C(O)C2(F)F)c(=O)n1 (stereo not given) + CN1CCN(c2cc(C(=O)Nc3cc4cc(-c5cnn(C)c5)ccc4cn3)ccn2)CC1 ?
Resp: 0 (no)

Req: Is viability, T/C strictly under 30% for the entry CC1(C)CCC(CN2CCN(c3ccc(C(=O)NS(=O)(=O)c4ccc(NCC5CCOCC5)c([N+](=O)[O-])c4)c(Oc4cnc5[nH]ccc5c4)c3)CC2)=C(c2ccc(Cl)cc2)C1 + CN1CCN(c2cc(C(=O)Nc3cc4cc(-c5cnn(C)c5)ccc4cn3)ccn2)CC1 ?
Resp: 0 (no)
